Below, Ki values reported for 5-hydroxytryptamine receptor 1D (Homo sapiens) across several publications.

Worked examples follow.
CNc1cc(NS(=O)(=O)c2ccc(N)cc2)nc(NC)n1; > 10 µM
CC(=O)N(C)c1cccc(CC2CCN(CCOc3cccc4nc(C)ccc34)CC2)c1; 0.00126 µM

Ki of Clc1ccc(-c2noc3c2CCNCC3)cc1 , assay on 5-hydroxytryptamine receptor 1D (Homo sapiens), is > 10 µM

* * *

Below, Ki values reported for 5-hydroxytryptamine receptor 1D (Homo sapiens) across several publications.
Mark t only when Ki stays strictly below 200 nM. Values equal to the cut-off are f.

These recorded examples may help you get a feel for the data.
Cc1ccc2c(N3CCN(CCc4ccc5c(c4)NC(=O)CO5)CC3)cc(Cl)cc2n1; t
O=C(Nc1ccc2[nH]cc(C3CCN(Cc4cccc(CN5CCC(c6c[nH]c7ccc(NC(=O)c8ccc(F)cc8)cc67)CC5)c4)CC3)c2c1)c1ccc(F)cc1; t
COc1ccccc1-c1cc(C2CCN(C)C2)ccc1Cl (configuration not stated); t

Prompt: Strictly below 200 nM: is that where Ki of CN1CCN([C@H](COc2cccc(Cl)c2Cl)c2ccccc2)CC1 sits?
Response: f

Prompt: Strictly below 200 nM: is that where Ki of Cc1ccc2c(OCCN3CCC(Cc4ccc5c(c4)NC(=O)CO5)CC3)ccc(Cl)c2n1 sits?
Response: t

Prompt: Strictly below 200 nM: is that where Ki of CNC(C)COc1ccc(Cl)cc1Cl (racemic) sits?
Response: f

Prompt: Strictly below 200 nM: is that where Ki of CCCN(CCCOc1cccc(Cl)c1)C1CCc2ccc3[nH]cc(C=O)c3c2C1 (configuration not stated) sits?
Response: t

Prompt: Strictly below 200 nM: is that where Ki of CN1CCN(CCOc2ccc(Br)cc2Br)CC1 sits?
Response: f

Prompt: Strictly below 200 nM: is that where Ki of CN1CCC(c2c[nH]c3ccc(OS(=O)(=O)c4ccc(F)cc4)nc23)CC1 sits?
Response: t

Prompt: Strictly below 200 nM: is that where Ki of CN1CCN([C@@H](COc2cccc(Cl)c2Cl)c2ccccc2)CC1 sits?
Response: f

Prompt: Strictly below 200 nM: is that where Ki of CN1CCN(c2nccc3cc4c(cc23)N(C(=O)c2ccccc2Cl)CC4)CC1 sits?
Response: t

Prompt: Strictly below 200 nM: is that where Ki of N#Cc1ccc2c(c1)CN(CC[C@H]1CC[C@H](NC(=O)/C=C/c3ccccc3)CC1)CC2 sits?
Response: t

Prompt: Strictly below 200 nM: is that where Ki of N[C@@H]1CCN(c2ccc3[nH]nc(S(=O)(=O)c4cccc5ccccc45)c3c2)C1 sits?
Response: f
